Hello, the source for this data is patent US8399489B2, in case you need it.

Tested on: SAU516
Experiment: Bacterial susceptibility testing in liquid media (MIC), SAU516
Type: cell-based
Conditions: strain SAU516; lowest concentration reducing growth by 80% or more; 37 degrees C., 24 hrs
Value Kind: MIC SAU516 (µg/mL)
Report as a plain number; the unit µg/mL is understood.

Here's what some known entries look like.
Molecule | MIC SAU516 / µg/mL
CO[C@@H]1CN(c2cc(C(=O)O)nc3ccccc23)CC[C@@H]1NC(=O)c1cc(Cl)c(C)[nH]1 (racemic) | 2
CO[C@H]1CN(c2nc3cccc(C(=O)O)c3s2)CC[C@H]1NC(=O)c1[nH]c(C)c(Cl)c1Cl | 0.031

Fill in: MIC SAU516 of CO[C@@H]1CN(c2cc(C(=O)O)ncc2Cl)CC[C@@H]1NC(=O)c1[nH]c(C)c(Cl)c1Cl (racemic) is ___
4

Could you share which MIC SAU516 value was measured for `Cc1[nH]c(C(=O)N[C@@H]2CCN(c3cc(C(=O)O)ccn3)C[C@@H]2F)c(Cl)c1Cl` ?
0.5

----------
System: SPN548
Experiment: Bacterial susceptibility testing in liquid media (MIC), SPN548
Assay type: cell-based
Conditions: strain SPN548; lowest concentration reducing growth by 80% or more; 37 degrees C., 24 hrs
Catalogue of molecules with associated MIC SPN548
// return numeric value only (unit: µg/mL, not printed)

Here is how some molecules turned out for MIC SPN548.
Molecule | Measured Number
CO[C@@H]1CN(c2cc(C(=O)O)nc3ccccc23)CC[C@@H]1NC(=O)c1cc(Cl)c(C)[nH]1 (racemic) [Example 60] | 2
CO[C@@H]1CN(c2cc(C(=O)O)ncc2Cl)CC[C@@H]1NC(=O)c1[nH]c(C)c(Cl)c1Cl (racemic) [Example 315] | 0.5
Cc1[nH]c(C(=O)N[C@@H]2CCN(c3cc(C(=O)O)ccn3)C[C@@H]2F)c(Cl)c1Cl [Example 345] | 0.03

Now for the molecule whose MIC SPN548 we want.
Tell me the measured MIC SPN548 of CO[C@H]1CN(c2nc3cccc(C(=O)O)c3s2)CC[C@H]1NC(=O)c1[nH]c(C)c(Cl)c1Cl [Example 294] , please.
0.0039
